Each recorded value in this set is attributed to paper PMC9952496.

Test system: E. faecalis (NCTC 12697)
Type: cell-based
Conditions: NCTC 12697, 20 h
Residues, ends and D or L forms follow the SMILES beside them.
Items are presented alongside their recorded MBC.
Numbers only here, please. The scale is µM.

CC[C@H](C)[C@H](NC(=O)[C@H](CCCCN)NC(=O)[C@H](CCCCN)NC(=O)[C@@H](NC(=O)[C@@H](NC(=O)[C@H](CC(=O)O)NC(=O)[C@H](Cc1ccccc1)NC(=O)[C@H](CC(C)C)NC(=O)CN)[C@@H](C)CC)[C@@H](C)CC)C(=O)N[C@@H](C)C(=O)N[C@@H](CCC(=O)O)C(=O)N[C@@H](CO)C(=O)N[C@@H](Cc1ccccc1)C(N)=O [aurein 1.2] (H-GLFDIIKKIAESF-NH2) ... 32
CC[C@H](C)[C@H](NC(=O)[C@H](CC(=O)O)NC(=O)[C@H](Cc1ccccc1)NC(=O)[C@H](CC(C)C)NC(=O)CN)C(=O)N[C@H](C(=O)N[C@@H](CCCCN)C(=O)N[C@@H](CCCCN)C(=O)N[C@@H](CC(C)C)C(=O)N[C@@H](C)C(=O)N[C@@H](CCCCN)C(=O)N[C@@H](CC(C)C)C(=O)N[C@@H](C)C(=O)N[C@@H](CCC(=O)O)C(=O)N[C@@H](CO)C(=O)N[C@@H](Cc1ccccc1)C(N)=O)[C@@H](C)CC [KLA-2] (H-GLFDIIKKLAKLAESF-NH2) ... 16

Lab note: next compound to report on.
Item: CC[C@H](C)[C@H](NC(=O)[C@H](CCCCN)NC(=O)[C@H](CCCCN)NC(=O)[C@@H](NC(=O)[C@@H](NC(=O)[C@H](CCCCN)NC(=O)[C@H](CCCCN)NC(=O)[C@@H](NC(=O)[C@@H](NC(=O)[C@H](CC(=O)O)NC(=O)[C@H](Cc1ccccc1)NC(=O)[C@H](CC(C)C)NC(=O)CN)[C@@H](C)CC)[C@@H](C)CC)[C@@H](C)CC)[C@@H](C)CC)C(=O)N[C@@H](C)C(=O)N[C@@H](CCC(=O)O)C(=O)N[C@@H](CO)C(=O)N[C@@H](Cc1ccccc1)C(N)=O [IK-1] (H-GLFDIIKKIIKKIAESF-NH2) | MBC: 16
